target: Leucine-rich repeat serine/threonine-protein kinase 2 (Homo sapiens, UniProt Q5S007, G2019S); test: Inhibition of human LRRK2 G2019S mutant expressed in HEK293 cells assessed as reduction in pSer935 phosphorylation incubated for 2 hrs by immunoblotting analysis; type: cell-based
Sequence (Q5S007 whole entry G2019S, the tested form may be a part): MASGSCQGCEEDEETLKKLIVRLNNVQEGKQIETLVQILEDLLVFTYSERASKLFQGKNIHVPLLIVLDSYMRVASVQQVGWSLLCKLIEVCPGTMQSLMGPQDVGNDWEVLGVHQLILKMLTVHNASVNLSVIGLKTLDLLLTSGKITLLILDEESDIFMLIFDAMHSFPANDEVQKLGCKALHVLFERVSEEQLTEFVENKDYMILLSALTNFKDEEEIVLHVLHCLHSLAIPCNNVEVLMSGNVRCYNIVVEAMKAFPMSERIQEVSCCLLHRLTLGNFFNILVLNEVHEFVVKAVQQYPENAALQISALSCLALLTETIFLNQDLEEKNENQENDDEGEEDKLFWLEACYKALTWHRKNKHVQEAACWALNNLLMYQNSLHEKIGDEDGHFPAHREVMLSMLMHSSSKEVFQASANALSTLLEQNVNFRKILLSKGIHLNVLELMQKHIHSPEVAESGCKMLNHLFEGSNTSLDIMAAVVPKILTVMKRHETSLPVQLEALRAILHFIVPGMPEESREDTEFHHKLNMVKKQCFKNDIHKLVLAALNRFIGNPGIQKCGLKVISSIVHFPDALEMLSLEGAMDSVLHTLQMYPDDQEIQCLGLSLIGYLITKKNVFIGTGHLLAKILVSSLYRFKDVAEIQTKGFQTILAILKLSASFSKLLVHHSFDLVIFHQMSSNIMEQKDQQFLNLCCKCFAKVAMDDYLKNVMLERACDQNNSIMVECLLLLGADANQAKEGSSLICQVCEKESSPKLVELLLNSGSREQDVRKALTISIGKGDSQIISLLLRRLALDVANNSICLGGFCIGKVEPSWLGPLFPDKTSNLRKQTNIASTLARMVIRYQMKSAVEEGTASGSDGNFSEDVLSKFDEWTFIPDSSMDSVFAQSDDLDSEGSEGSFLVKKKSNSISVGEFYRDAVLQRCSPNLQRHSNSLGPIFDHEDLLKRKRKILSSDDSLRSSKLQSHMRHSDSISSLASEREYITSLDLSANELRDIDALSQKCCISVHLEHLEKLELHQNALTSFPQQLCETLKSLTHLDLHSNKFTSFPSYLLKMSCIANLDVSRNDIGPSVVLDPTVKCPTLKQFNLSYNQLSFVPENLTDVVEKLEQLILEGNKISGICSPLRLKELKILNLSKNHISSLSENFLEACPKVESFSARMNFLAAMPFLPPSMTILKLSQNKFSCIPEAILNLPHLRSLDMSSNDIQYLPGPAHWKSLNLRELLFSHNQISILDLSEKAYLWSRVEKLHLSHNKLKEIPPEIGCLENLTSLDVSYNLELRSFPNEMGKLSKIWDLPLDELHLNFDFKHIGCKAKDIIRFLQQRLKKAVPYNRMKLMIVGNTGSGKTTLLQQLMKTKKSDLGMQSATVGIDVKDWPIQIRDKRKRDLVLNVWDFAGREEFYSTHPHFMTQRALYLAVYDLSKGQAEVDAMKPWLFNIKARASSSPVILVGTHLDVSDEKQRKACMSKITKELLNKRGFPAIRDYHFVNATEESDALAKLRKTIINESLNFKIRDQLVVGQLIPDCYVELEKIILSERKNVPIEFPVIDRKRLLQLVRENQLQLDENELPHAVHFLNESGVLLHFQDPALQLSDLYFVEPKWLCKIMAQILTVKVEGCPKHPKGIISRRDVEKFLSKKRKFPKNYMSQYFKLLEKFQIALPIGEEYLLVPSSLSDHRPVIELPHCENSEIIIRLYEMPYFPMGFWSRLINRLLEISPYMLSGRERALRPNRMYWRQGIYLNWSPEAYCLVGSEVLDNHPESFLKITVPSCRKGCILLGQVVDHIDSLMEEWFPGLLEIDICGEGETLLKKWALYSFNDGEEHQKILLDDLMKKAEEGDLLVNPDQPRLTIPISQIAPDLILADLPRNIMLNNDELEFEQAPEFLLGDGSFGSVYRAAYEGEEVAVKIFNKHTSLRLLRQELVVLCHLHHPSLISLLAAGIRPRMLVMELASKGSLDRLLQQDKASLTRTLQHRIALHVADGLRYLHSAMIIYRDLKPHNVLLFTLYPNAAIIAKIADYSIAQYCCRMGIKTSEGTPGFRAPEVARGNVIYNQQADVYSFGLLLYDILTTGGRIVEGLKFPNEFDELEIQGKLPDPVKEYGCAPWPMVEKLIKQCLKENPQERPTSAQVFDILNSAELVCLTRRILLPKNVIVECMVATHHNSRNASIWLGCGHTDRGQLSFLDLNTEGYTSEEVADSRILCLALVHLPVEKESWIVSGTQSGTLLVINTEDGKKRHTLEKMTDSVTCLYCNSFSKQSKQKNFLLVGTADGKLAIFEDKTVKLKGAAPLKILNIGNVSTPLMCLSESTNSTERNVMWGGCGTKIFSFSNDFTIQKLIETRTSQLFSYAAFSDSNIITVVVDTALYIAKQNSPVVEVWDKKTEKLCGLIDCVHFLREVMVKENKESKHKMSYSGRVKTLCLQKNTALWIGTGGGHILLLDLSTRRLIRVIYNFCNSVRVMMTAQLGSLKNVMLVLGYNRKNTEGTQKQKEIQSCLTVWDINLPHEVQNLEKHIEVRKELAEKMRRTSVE
MEASURED_ATTRIBUTE: IC50 (nM)

1. CC1=C(C(=O)Nc2ccc3[nH]nc(-c4ccccc4)c3c2)C(C)(C)n2nnnc2N1C
2. CC1=C(C(=O)Nc2ccc3[nH]nc(-c4ccnc(N5CCOCC5)c4)c3c2)C(C)(C)n2nnnc2N1C
3. CC1=C(C(=O)Nc2ccc3[nH]nc(C)c3c2)[C@@H](C)n2nnnc2N1C
Query block: Sort these compounds on IC50 so the largest reading comes first. # the answer lists labels in the order requested
Result block: 3, 1, 2

* * *

molecular target: Leucine-rich repeat serine/threonine-protein kinase 2 (Homo sapiens, UniProt Q5S007, G2019S); experiment: Inhibition of N-terminal GST-fused human LRRK2 G2019S mutant using fluorescein-labeled LRRKtide as substrate preincubated for 15 mins followed by substrate addition and measured after 1 hr by TR-FRET assay
MEASURED_ATTRIBUTE: IC50 (nM)

>  <SMILES_REPRESENTATION>
CC1=C(C(=O)Nc2ccc3[nH]ncc3c2)Cn2nnnc2N1c1ccccc1

>  <MEASURED_ATTRIBUTE>
IC50

>  <REPORTED_RESULT>
2.6

$$$$

I. CC1=C(C(=O)Nc2ccc3[nH]ncc3c2)Cn2nnnc2N1C(=O)N(C)C
II. CC1=C(C(=O)Nc2ccc3[nH]ncc3c2)Cn2nnnc2N1C
Query block: Compare I and II and name the one whose reported IC50 is smaller. Selection: enter the item's label.
Result block: II
(II: 32 nM, I: 53 nM)

1. CC1=C(C(=O)Nc2ccc3[nH]nc(C)c3c2)[C@H](C)n2nnnc2N1C
2. CC1=C(C(=O)Nc2ccc3[nH]nc(C)c3c2)C(C)(C)n2nnnc2N1C
Query block: Identify the entry with the larger IC50. Options: 1 and 2 Selection: enter the item's label.
Result block: 1
(1: 51 nM, 2: 0.8 nM)

* * *

target: Leucine-rich repeat serine/threonine-protein kinase 2 (Homo sapiens, UniProt Q5S007, G2019S); test: Inhibition human LRRK2 G2019S mutant expressed in human HEK293 assessed as Rab10 substrate phosphorylation at Threonine 73 residue incubated for 2 hrs by immunoblotting analysis; assay type: cell-based
MEASURED_ATTRIBUTE: IC50 (µM)

>  <SMILES_REPRESENTATION>
CC1=C(C(=O)Nc2ccc3[nH]nc(C)c3c2)[C@@H](C)n2nnnc2N1C

>  <IC50, µM>
0.137

$$$$

1. CC1=C(C(=O)Nc2ccc3[nH]nc(-c4ccnc(N5CCOCC5)c4)c3c2)C(C)(C)n2nnnc2N1C
2. CC1=C(C(=O)Nc2ccc3[nH]nc(-c4ccccc4)c3c2)C(C)(C)n2nnnc2N1C
Query block: Identify the entry with the larger IC50. Options: 1 and 2 Selection: enter the item's label.
Result block: 2

* * *

organism: Homo sapiens; test: Selectivity ratio of IC50 for inhibition of N-terminal GST-fused human wild type LRRK2 to IC50 for inhibition of N-terminal GST-fused human […] mutant
MEASURED_ATTRIBUTE: Ratio IC50

Check out these entries, answers already filled in.
>  <SMILES_REPRESENTATION>
CC1=C(C(=O)Nc2ccc3[nH]ncc3c2)[C@@H](C)n2nnnc2N1C

>  <REPORTED_RESULT>
43

$$$$
>  <SMILES_REPRESENTATION>
CC1=C(C(=O)Nc2ccc3[nH]ncc3c2)[C@H](C)n2nnnc2N1C

>  <REPORTED_RESULT>
3.2

$$$$
>  <SMILES_REPRESENTATION>
CC1=C(C(=O)Nc2ccc3[nH]nc(Br)c3c2)Cn2nnnc2N1C

>  <REPORTED_RESULT>
40

$$$$
>  <SMILES_REPRESENTATION>
CC(=O)N1C(C)=C(C(=O)Nc2ccc3[nH]ncc3c2)Cn2nnnc21

>  <REPORTED_RESULT>
5

$$$$
>  <SMILES_REPRESENTATION>
CC1=C(C(=O)Nc2ccc3[nH]nc(C(N)=O)c3c2)Cn2nnnc2N1C

>  <REPORTED_RESULT>
21

$$$$

a. CC1=C(C(=O)Nc2ccc3[nH]nc(C)c3c2)C(C)(C)n2nnnc2N1C
b. CCN1C(C)=C(C(=O)Nc2ccc3[nH]ncc3c2)Cn2nnnc21
Query block: Identify the entry with the larger Ratio IC50. Options: a and b Selection: enter the item's label.
Result block: a
(a: 190, b: 15)

P. CC1=C(C(=O)Nc2ccc3[nH]ncc3c2)C(C)(C)n2nnnc2N1C
Q. CC1=C(C(=O)Nc2ccc3c(c2)C(=O)NC3=O)[C@@H](C)n2nnnc2N1C
Query block: Compare P and Q and name the one whose reported Ratio IC50 is smaller. Selection: enter the item's label.
Result block: Q

a. CC1=C(C(=O)Nc2ccc3[nH]nc(C)c3c2)[C@@H](C)n2nnnc2N1C
b. CC1=C(C(=O)Nc2ccc3c(c2)CNC3=O)[C@@H](C)n2nnnc2N1C
Query block: Identify the entry with the larger Ratio IC50. Options: a and b Selection: enter the item's label.
Result block: b

* * *

species on record: Homo sapiens; assay: Selectivity ratio of IC50 for inhibition of N-terminal GST-fused human wild type LRRK2 to IC50 for inhibition of N-terminal GST-fused human […] mutant
MEASURED_ATTRIBUTE: Ratio IC50

Check out these entries, answers already filled in.
>  <SMILES_REPRESENTATION>
CC1=C(C(=O)Nc2ccc3[nH]ncc3c2)Cn2nnnc2N1CCN1CCOCC1

>  <Ratio IC50>
1.3

$$$$
>  <SMILES_REPRESENTATION>
CC1=C(C(=O)Nc2ccc3[nH]nc(NC(=O)c4ccccc4)c3c2)Cn2nnnc2N1C

>  <Ratio IC50>
35

$$$$
>  <SMILES_REPRESENTATION>
CC1=C(C(=O)Nc2ccc3[nH]c(=O)n(C)c3c2)[C@@H](C)n2nnnc2N1C

>  <Ratio IC50>
49.7

$$$$
>  <SMILES_REPRESENTATION>
CC1=C(C(=O)Nc2ccc3[nH]nc(-c4ccncc4)c3c2)Cn2nnnc2N1C

>  <Ratio IC50>
20

$$$$

I. CC1=C(C(=O)Nc2ccc3[nH]ncc3c2)Cn2nnnc2N1c1ccccc1
II. CC1=C(C(=O)Nc2ccc3c(N)nccc3c2)[C@@H](C)n2nnnc2N1C
Query block: Compare I and II and name the one whose reported Ratio IC50 is smaller. Selection: enter the item's label.
Result block: I
(I: 2.2, II: 48)

* * *

target: Leucine-rich repeat serine/threonine-protein kinase 2 (Homo sapiens, UniProt Q5S007); assay: Inhibition of human wild type LRRK2 expressed in HEK293 cells assessed as reduction in pS1292 phosphorylation incubated for 2 hrs by MSD analysis; format: cell-based
Sequence (Q5S007 whole entry): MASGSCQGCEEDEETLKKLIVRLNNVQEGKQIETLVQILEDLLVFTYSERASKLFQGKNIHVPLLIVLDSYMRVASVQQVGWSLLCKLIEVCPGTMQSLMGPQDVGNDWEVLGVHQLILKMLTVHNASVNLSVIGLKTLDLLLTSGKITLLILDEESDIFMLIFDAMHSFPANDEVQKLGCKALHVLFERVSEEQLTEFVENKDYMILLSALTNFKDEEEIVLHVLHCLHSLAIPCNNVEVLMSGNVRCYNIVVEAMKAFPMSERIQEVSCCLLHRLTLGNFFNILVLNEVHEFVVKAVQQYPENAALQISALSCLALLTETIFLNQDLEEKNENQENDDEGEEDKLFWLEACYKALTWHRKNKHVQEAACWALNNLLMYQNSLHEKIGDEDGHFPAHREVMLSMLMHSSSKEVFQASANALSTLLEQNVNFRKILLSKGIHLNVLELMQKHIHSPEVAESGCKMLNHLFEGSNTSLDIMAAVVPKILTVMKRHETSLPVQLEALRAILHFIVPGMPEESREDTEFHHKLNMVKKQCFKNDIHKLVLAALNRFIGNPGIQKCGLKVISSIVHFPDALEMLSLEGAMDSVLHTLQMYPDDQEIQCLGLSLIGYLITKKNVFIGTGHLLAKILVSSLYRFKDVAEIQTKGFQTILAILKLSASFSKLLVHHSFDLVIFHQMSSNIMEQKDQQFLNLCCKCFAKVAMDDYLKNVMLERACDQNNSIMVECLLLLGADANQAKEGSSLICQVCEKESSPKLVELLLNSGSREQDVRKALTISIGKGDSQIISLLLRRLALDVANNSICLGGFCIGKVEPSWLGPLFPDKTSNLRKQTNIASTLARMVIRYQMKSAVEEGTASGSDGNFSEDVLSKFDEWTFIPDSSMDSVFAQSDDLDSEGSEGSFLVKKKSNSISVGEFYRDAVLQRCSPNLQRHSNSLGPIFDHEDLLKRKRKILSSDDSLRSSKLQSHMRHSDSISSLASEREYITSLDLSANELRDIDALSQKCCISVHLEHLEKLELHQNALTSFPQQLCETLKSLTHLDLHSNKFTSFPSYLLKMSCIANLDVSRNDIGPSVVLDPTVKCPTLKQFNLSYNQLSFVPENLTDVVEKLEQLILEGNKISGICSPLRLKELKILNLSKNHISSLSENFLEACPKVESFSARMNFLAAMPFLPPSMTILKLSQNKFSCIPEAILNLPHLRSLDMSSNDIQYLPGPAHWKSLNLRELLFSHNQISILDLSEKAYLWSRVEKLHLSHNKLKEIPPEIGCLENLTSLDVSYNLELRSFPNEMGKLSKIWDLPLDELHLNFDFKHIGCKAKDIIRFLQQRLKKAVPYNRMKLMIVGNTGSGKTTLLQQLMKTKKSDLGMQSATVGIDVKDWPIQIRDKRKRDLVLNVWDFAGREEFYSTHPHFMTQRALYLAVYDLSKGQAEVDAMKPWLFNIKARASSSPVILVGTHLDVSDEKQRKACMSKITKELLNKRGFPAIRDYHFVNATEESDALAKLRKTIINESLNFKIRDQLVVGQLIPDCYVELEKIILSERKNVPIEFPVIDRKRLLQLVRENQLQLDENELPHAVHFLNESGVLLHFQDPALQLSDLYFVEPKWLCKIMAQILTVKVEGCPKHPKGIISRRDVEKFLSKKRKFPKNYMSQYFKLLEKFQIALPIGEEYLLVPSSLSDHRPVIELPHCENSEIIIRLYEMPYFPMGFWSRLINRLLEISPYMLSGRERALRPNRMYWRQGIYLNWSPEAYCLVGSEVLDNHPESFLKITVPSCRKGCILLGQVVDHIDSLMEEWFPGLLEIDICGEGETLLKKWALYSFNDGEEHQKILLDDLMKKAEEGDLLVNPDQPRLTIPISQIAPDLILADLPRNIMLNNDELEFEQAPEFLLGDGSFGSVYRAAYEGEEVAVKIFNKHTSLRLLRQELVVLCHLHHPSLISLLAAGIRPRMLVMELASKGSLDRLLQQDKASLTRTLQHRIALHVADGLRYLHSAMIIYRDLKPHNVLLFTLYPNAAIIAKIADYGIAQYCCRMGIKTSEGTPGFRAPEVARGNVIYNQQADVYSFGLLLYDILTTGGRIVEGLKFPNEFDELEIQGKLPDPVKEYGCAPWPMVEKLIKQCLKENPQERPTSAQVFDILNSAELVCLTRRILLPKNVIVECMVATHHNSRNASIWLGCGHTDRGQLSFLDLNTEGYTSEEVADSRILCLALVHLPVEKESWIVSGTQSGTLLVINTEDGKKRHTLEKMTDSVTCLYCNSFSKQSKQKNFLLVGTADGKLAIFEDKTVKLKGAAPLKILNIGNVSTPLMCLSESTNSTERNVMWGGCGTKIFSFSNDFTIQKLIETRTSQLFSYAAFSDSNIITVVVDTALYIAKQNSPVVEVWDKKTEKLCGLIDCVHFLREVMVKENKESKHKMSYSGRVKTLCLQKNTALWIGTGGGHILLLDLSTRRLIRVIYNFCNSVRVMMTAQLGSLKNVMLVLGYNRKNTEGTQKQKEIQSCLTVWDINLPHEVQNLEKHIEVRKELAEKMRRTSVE
MEASURED_ATTRIBUTE: IC50 (nM)

Check out these entries, answers already filled in.
>  <SMILES_REPRESENTATION>
CC1=C(C(=O)Nc2ccc3[nH]ncc3c2)[C@@H](C)n2nnnc2N1C

>  <IC50 (nM)>
2180

$$$$
>  <SMILES_REPRESENTATION>
CC1=C(C(=O)Nc2ccc3[nH]nc(-c4nc5ccccc5[nH]4)c3c2)Cn2nnnc2N1C

>  <IC50 (nM)>
242

$$$$
>  <SMILES_REPRESENTATION>
CC1=C(C(=O)Nc2ccc3[nH]nc(C)c3c2)[C@@H](C)n2nnnc2N1C

>  <IC50 (nM)>
380

$$$$

P. CC1=C(C(=O)Nc2ccc3[nH]nc(-c4ccnc(N5CCOCC5)c4)c3c2)Cn2nnnc2N1C
Q. CC1=C(C(=O)Nc2ccc3[nH]nc(-c4ccccc4)c3c2)C(C)(C)n2nnnc2N1C
R. CC1=C(C(=O)Nc2ccc3[nH]nc(-c4ccncc4)c3c2)[C@@H](C)n2nnnc2N1C
S. CC1=C(C(=O)Nc2ccc3[nH]nc(-c4ccnc(N5CCOCC5)c4)c3c2)[C@@H](C)n2nnnc2N1C
T. CC1=C(C(=O)Nc2ccc3[nH]nc(-c4ccnc(N5CCOCC5)c4)c3c2)C(C)(C)n2nnnc2N1C
Query block: # rank_down: sort by IC50, max first # the answer lists labels in the order requested
Result block: R, Q, P, T, S

* * *

target: Leucine-rich repeat serine/threonine-protein kinase 2 (Homo sapiens); test: Inhibition of N-terminal GST-fused human wild type LRRK2 using fluorescein-labeled LRRKtide as substrate preincubated for 15 mins followed by substrate addition and measured after 1 hr by TR-FRET assay
Measured IC50 of individual entries

>  <SMILES_REPRESENTATION>
CC1=C(C(=O)Nc2ccn3cnc(C)c3c2)Cn2nnnc2N1C

>  <REPORTED_RESULT>
> 10 µM

$$$$
>  <SMILES_REPRESENTATION>
CC1=C(C(=O)Nc2ccc3[nH]cc(C)c3c2)Cn2nnnc2N1C

>  <REPORTED_RESULT>
> 10 µM

$$$$
>  <SMILES_REPRESENTATION>
CN1C=C(C(=O)Nc2ccc3[nH]ncc3c2)Cn2nnnc21

>  <REPORTED_RESULT>
> 10 µM

$$$$
>  <SMILES_REPRESENTATION>
CC1=C(C(=O)Nc2ccc3[nH]c(=O)[nH]c3c2)Cn2nnnc2N1C

>  <REPORTED_RESULT>
> 8.6 µM

$$$$
>  <SMILES_REPRESENTATION>
CC1=C(C(=O)Nc2ccc3[nH]cnc3c2)Cn2nnnc2N1C

>  <REPORTED_RESULT>
> 10 µM

$$$$
>  <SMILES_REPRESENTATION>
CC1=C(C(=O)Nc2ccc3[nH]nc(-c4ccnc(N5CCOCC5)c4)c3c2)[C@@H](C)n2nnnc2N1C

>  <REPORTED_RESULT>
< 0.0002 µM

$$$$
>  <SMILES_REPRESENTATION>
CC1=C(C(=O)Nc2ccc3c(c2)[nH]c(=O)n3C)[C@@H](C)n2nnnc2N1C

>  <REPORTED_RESULT>
> 10 µM

$$$$
>  <SMILES_REPRESENTATION>
CC1=C(C(=O)Nc2ccc3cnc(C)n3c2)Cn2nnnc2N1C

>  <REPORTED_RESULT>
> 10 µM

$$$$

Query block: Suppose we examine the compound CCCC(=O)Nc1n[nH]c2ccc(NC(=O)C3=C(C)N(C)c4nnnn4C3)cc12 ; what IC50 value has been reported?
Result block: > 10 µM

Query block: Suppose we examine the compound CC1=C(C(=O)Nc2ccc3[nH]nc(-c4ccncc4)c3c2)[C@@H](C)n2nnnc2N1C ; what IC50 value has been reported?
Result block: < 0.0002 µM

Query block: Suppose we examine the compound CC1=C(C(=O)Nc2ccc3[nH]nc(-c4ccnc(N5CCOCC5)c4)c3c2)Cn2nnnc2N1C ; what IC50 value has been reported?
Result block: < 0.0002 µM

Query block: Suppose we examine the compound CC1=C(C(=O)Nc2ccc3c(c2)CC(=O)N3)Cn2nnnc2N1C ; what IC50 value has been reported?
Result block: > 10 µM
